B1: ETS1 (parent)
chain: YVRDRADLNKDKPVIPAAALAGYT

# Variants of: B1
# method-summary: protein stability index of a GFP-peptide fusion (GPS, HEK-293T) (PSI 1-6); higher = more stable;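 further: lentivirally expressed fusions sorted by FACS into six bins by GFP to DsRed ratio, PSI derived from sequencing read proportions per bin multiplied by bin number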
# assay-context: c terminus: a fixed tail appended
measurement-label: protein stability index
// no unit, no text: just the number

| sequence-change | protein stability index |
| --- | --- |
| V2W | 3.19 |
| L8I | 2.64 |
| K12W | 2.43 |
| G22F | 2.21 |
| A19P | 2.04 |

Moving on to the next variant.
Record A21N , field protein stability index: 2.14

src = the supplement of paper PMC10567573
